tested on: Bifidobacterium adolescentis SPM1601; experiment: Antibiotics sensitivity, agar dilution MIC; format: cell-based; settings: strain SPM1601; Table 5
observed.property: Minimum inhibitory concentrations (MICs) (μl/Ml)
The reply should contain only the number, in μl/Ml.

Input: Look up Minimum inhibitory concentrations (MICs) for this compound: `[H]/N=C(/N)N[C@H]1[C@H](O)[C@@H](O)[C@H](O[C@@H]2O[C@@H](C)[C@](O)(C=O)[C@H]2O[C@@H]2O[C@@H](CO)[C@H](O)[C@@H](O)[C@@H]2NC)[C@@H](N/C(N)=N\[H])[C@@H]1O`
Output: 64

---

tested on: Bifidobacterium adolescentis SPM1601; assay: Antibiotics sensitivity, agar dilution MIC; type: cell-based; details: strain SPM1601; Table 5
observed.property: Minimum inhibitory concentrations (MICs) (μl/Ml)
The reply should contain only the number, in μl/Ml.

Study these solved cases before continuing.
Input: Look up Minimum inhibitory concentrations (MICs) for this compound: `CCCCCCCCCC(=O)N[C@@H](Cc1c[nH]c2ccccc12)C(=O)N[C@H](CC(N)=O)C(=O)N[C@@H](CC(=O)O)C(=O)N[C@@H]1C(=O)NCC(=O)N[C@@H](CCCN)C(=O)N[C@@H](CC(=O)O)C(=O)N[C@H](C)C(=O)N[C@@H](CC(=O)O)C(=O)NCC(=O)N[C@H](CO)C(=O)N[C@@H]([C@H](C)CC(=O)O)C(=O)N[C@@H](CC(=O)c2ccccc2N)C(=O)O[C@@H]1C`
Output: 4

Input: Look up Minimum inhibitory concentrations (MICs) for this compound: `CCC[C@@H]1C[C@@H](C(=O)N[C@@H]([C@H]2O[C@H](SC)[C@H](O)[C@@H](O)[C@H]2O)[C@H](C)Cl)N(C)C1`
Output: 16

Input: Look up Minimum inhibitory concentrations (MICs) for this compound: `CN[C@H](CC(C)C)C(=O)N[C@H]1C(=O)N[C@@H](CC(N)=O)C(=O)N[C@H]2C(=O)N[C@H]3C(=O)N[C@H](C(=O)N[C@H](C(=O)O)c4cc(O)cc(O)c4-c4cc3ccc4O)[C@H](O)c3ccc(c(Cl)c3)Oc3cc2cc(c3O[C@@H]2O[C@H](CO)[C@@H](O)[C@H](O)[C@H]2O[C@H]2C[C@](C)(N)[C@H](O)[C@H](C)O2)Oc2ccc(cc2Cl)[C@H]1O`
Output: 2

New cases:
Input: Look up Minimum inhibitory concentrations (MICs) for this compound: `CN(C)c1cc(NC(=O)CNC(C)(C)C)c(O)c2c1C[C@H]1C[C@H]3[C@H](N(C)C)C(O)=C(C(N)=O)C(=O)[C@@]3(O)C(O)=C1C2=O`
Output: 0.25

Input: Look up Minimum inhibitory concentrations (MICs) for this compound: `NC[C@H]1O[C@H](O[C@H]2[C@H](O)[C@@H](O[C@H]3O[C@H](CO)[C@@H](O)[C@H](N)[C@H]3O)[C@H](N)C[C@@H]2N)[C@H](N)C[C@@H]1O`
Output: 32

Input: Look up Minimum inhibitory concentrations (MICs) for this compound: `CC(=O)NC[C@H]1CN(c2ccc(N3CCOCC3)c(F)c2)C(=O)O1`
Output: 8
